From: patent US20260132182A1

Target: T1, human amylin-3 (a) receptor (human, UniProt P30988 25-474; O60896 24-148)
T1 sequence (looked up) 1: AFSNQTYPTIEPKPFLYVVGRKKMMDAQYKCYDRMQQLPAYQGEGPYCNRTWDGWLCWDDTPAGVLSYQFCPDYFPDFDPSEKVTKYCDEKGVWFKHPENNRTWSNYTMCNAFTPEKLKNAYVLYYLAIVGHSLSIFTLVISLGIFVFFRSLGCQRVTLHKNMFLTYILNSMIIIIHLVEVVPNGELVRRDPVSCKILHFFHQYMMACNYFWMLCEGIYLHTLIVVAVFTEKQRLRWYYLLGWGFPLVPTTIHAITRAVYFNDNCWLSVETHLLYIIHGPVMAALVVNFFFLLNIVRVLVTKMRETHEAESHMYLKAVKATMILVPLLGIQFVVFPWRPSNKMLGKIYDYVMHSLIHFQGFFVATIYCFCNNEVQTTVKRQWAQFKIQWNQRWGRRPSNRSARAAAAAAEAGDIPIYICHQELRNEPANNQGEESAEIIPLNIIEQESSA
T1 sequence (looked up) 2: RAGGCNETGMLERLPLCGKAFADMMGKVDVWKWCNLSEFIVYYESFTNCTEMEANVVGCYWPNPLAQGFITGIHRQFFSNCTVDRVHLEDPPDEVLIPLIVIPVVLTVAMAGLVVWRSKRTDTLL
Assay: cell-based or functional assay
Starred links: 1 amine or outer side, 2 acyl side, 3 side chain; linkers in the order of their positions; H or OH if unused. Non-standard residues stand in square brackets, D forms with d. Groups on a side chain read outwards from the residue. *: point of attachment. Decanoyl(10-(4-HOOC-PhO)) = O=C(O)c1ccc(OCCCCCCCCCC(=O)*)cc1; C20 diacid = O=C(O)CCCCCCCCCCCCCCCCCCC(=O)*; C18 diacid = O=C(O)CCCCCCCCCCCCCCCCC(=O)*; C16 diacid = O=C(O)CCCCCCCCCCCCCCC(=O)*; γGlu = O=C(O)[C@H](CCC(=O)[*:2])N[*:1]; C14 diacid = O=C(O)CCCCCCCCCCCCC(=O)*; εLys = N[C@@H](CCCCN[*:1])C(=O)[*:2]; Trx = NC[C@H]1CC[C@H](C(=O)O)CC1; AEEA = NCCOCCOCC(=O)O; Aib = CC(C)(N)C(=O)O; Ahx = NCCCCCC(=O)O
Exercise: for every item that follows, state its recorded Human AmyR3 potency [EC50 (pM)].
Number only, in pM; omit the unit.

INPUT: Specify Human AmyR3 potency [EC50 (pM)] for Compound 0397 (peptide) peptide: H[Aib]EGTFTSDVSSYLEEK([AEEA-AEEA-γGlu-C16 diacid])AAREFIAWLVRGRGGGGGEASELSTAALGRLSAELHELATLK([AEEA-AEEA-γGlu-C16 diacid])RTETGSGSP-NH2 and stop.
OUTPUT: 18.5

INPUT: Quickly give me recorded Human AmyR3 potency [EC50 (pM)] for Compound 0635 (not fully specified (residue 21)) peptide: H[Aib]EGTFTSDVSK([AEEA-AEEA-γGlu-C14 diacid])YLEEQAARKFIAWLVRGRK([AEEA-AEEA-γGlu-C14 diacid])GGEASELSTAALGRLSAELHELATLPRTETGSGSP-NH2
OUTPUT: 78.9

INPUT: Hello, please tell me recorded Human AmyR3 potency [EC50 (pM)] for this one: Compound 0151 (peptide) peptide: H[Aib]EGTFTSDVSSYLEGQAAREFIAWLVRGRK([AEEA-AEEA-γGlu-C18 diacid])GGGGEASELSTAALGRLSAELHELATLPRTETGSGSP-NH2
OUTPUT: 9.5

INPUT: Give reported Human AmyR3 potency [EC50 (pM)] value for Compound 0484 (peptide) peptide: H[Aib]EGTFTSDVSK([AEEA-AEEA-γGlu-C14 diacid])YLEEQAVREFIAK([AEEA-AEEA-γGlu-C14 diacid])LVRGRGGGEASELSTAALGRLSAELHELATLPRTETGSGSP-NH2
OUTPUT: 32.5

INPUT: Hello, please tell me recorded Human AmyR3 potency [EC50 (pM)] for this one: Compound 0179 (peptide) peptide: H[Aib]EGTFTSDVSSYLEEQAAREFIEWLVRGRK([AEEA-AEEA-γGlu-Trx-C20 diacid])EAEAEASELSTAALGRLSAELHELATLPRTETGSGSP-NH2
OUTPUT: 35.9

INPUT: Write down Human AmyR3 potency [EC50 (pM)] measured for item Compound 0269 (peptide) peptide: HWEGTFTSDVSSYLEEQAAREFIEWLVRGRK([AEEA-AEEA-γGlu-Trx-C20 diacid])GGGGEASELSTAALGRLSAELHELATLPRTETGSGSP-NH2
OUTPUT: 7.5

INPUT: Indicate the recorded Human AmyR3 potency [EC50 (pM)] value for this binder: Compound 0266 (peptide) peptide: H[Aib]EGTFTSDK([AEEA-AEEA-γGlu-Trx-C20 diacid])SSYLEEQAAREFIAWLVRGRGGGGEASELSTAALGRLSAELHELATLPRTETGSGSP-NH2
OUTPUT: 8.5

INPUT: Give Human AmyR3 potency [EC50 (pM)] for the following binder: Compound 0110 (peptide) peptide: H[Aib]EGTFTSDVSSYLEEQAARK([εLys-AEEA-AEEA-γGlu-C18 diacid])FIAWLVRGK([εLys-AEEA-AEEA-γGlu-C18 diacid])GGGGGGGGGEASELSTAALGRLSAELHELATLPRTETGSGSP-NH2
OUTPUT: 40.7

INPUT: Identify measured Human AmyR3 potency [EC50 (pM)] corresponding to Compound 0636 (peptide) peptide: H[Aib]EGTFTSDVSSYLEEQAARK([AEEA-AEEA-γGlu-γGlu-γGlu-C20 diacid])FIEWLVRGRQEAASELSTAALGRLSAELHQLATLPRTETGSGSP-NH2
OUTPUT: 8.5

INPUT: Let me know recorded Human AmyR3 potency [EC50 (pM)] for Compound 0259 (peptide) peptide: H[Aib]EGTFTSDK([AEEA-AEEA-γGlu-C16 diacid])SSYLEEQAAREFIAWLVRGRGGGGGEASELSTAALGRLSAELHK([AEEA-AEEA-γGlu-C16 diacid])LATLPRTETGSGSP-NH2 , thanks.
OUTPUT: 12

INPUT: // fetch Human AmyR3 potency [EC50 (pM)] given entry Compound 0512 (peptide) peptide: H[Aib]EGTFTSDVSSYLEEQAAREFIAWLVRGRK([AEEA-AEEA-γGlu-Trx-C20 diacid])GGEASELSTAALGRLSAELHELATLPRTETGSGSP-NH2
OUTPUT: 10.8

INPUT: Answer with the recorded Human AmyR3 potency [EC50 (pM)] for the binder listed here: Compound 0094 (peptide) peptide: H[Aib]EGTFTSDVSSYLEGQAAK([AEEA-AEEA-γGlu-C20 diacid])EFIAWLVRGRGGGGGGGGGEASELSTAALGRLSAELHELATLPRTETGSGSP-NH2
OUTPUT: 11.3

INPUT: For the binder Compound 0561 (peptide) peptide: H[Aib]EGTFTSDVSSYLEEQAARK([AEEA-AEEA-γGlu-Trx-C20 diacid])FIAWLVRGRGGGGGEASELSTAALGRLSAELHELATLPRTETGSGSP-NH2 , give its measured Human AmyR3 potency [EC50 (pM)] value.
OUTPUT: 10.7

INPUT: // fetch Human AmyR3 potency [EC50 (pM)] given entry Compound 0658 (peptide) peptide: H[Aib]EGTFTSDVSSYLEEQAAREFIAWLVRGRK([Ahx-Ahx-γGlu-C18 diacid])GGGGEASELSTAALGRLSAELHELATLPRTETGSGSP-NH2
OUTPUT: 11

INPUT: Recall and state the measured Human AmyR3 potency [EC50 (pM)] for Compound 0099 (peptide) peptide: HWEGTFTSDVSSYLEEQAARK([AEEA-AEEA-γGlu-Decanoyl(10-(4-HOOC-PhO))])FIEWLVRGK([AEEA-AEEA-γGlu-Decanoyl(10-(4-HOOC-PhO))])GEGEASELSTAALGRLSAELHELATLPRTETGSGSP-NH2 .
OUTPUT: 44.9
